# SYSTEM TESTED: T1, Anti-PSMA Fab (biotinylated (site not stated))
# T1 construct: also called 006 PSMA Fab
# ASSAY: clonal phage ELISA on biotinylated PSMA Fab captured on neutravidin plate, anti-M13 HRP detection
Would you mind telling me the reported Phage binding ELISA signal, Anti-PSMA Fab of each entry?
Lab note: jot down the number only; don't add units.

// Input: IEKVCVPAWMCMGF (Clonal phage of the Peptide-180 library) [Phage-3551] . Output its Phage binding ELISA signal, Anti-PSMA Fab only.
1.64

// Input: TERVCVPDWMCAGF (Clonal phage of the Peptide-180 library) [Phage-3547] . Output its Phage binding ELISA signal, Anti-PSMA Fab only.
1.65

// Input: LAVRCIPEWMCYGL (Clonal phage of the Peptide-180 library) [Phage-3555] . Output its Phage binding ELISA signal, Anti-PSMA Fab only.
1.64

// Input: MERWCIPVWMCQGL (Clonal phage of the Peptide-180 library) [Phage-3560] . Output its Phage binding ELISA signal, Anti-PSMA Fab only.
1.64

// Input: VEPACVPLWMCFGL (Clonal phage of the Peptide-180 library) [Phage-3558] . Output its Phage binding ELISA signal, Anti-PSMA Fab only.
1.64

// Input: MERMCVPSWMCTGF (Clonal phage of the Peptide-180 library) [Phage-3550] . Output its Phage binding ELISA signal, Anti-PSMA Fab only.
1.64

// Input: TYFRCEPSWMCTGL (Clonal phage of the Peptide-180 library) [Phage-3559] . Output its Phage binding ELISA signal, Anti-PSMA Fab only.
1.64

// Input: MNIMCRPVWMCTGL (Clonal phage of the Peptide-180 library) [Phage-3549] . Output its Phage binding ELISA signal, Anti-PSMA Fab only.
1.65

// Input: VVNFCKPQWMCSGF (Clonal phage of the Peptide-180 library) [Phage-3561] . Output its Phage binding ELISA signal, Anti-PSMA Fab only.
1.64

// Input: AGMMCTPPWMCFGF (Clonal phage of the Peptide-180 library) [Phage-3554] . Output its Phage binding ELISA signal, Anti-PSMA Fab only.
1.64

// Input: QSMMCIPSWMCVGF (Clonal phage of the Peptide-180 library) [Phage-3556] . Output its Phage binding ELISA signal, Anti-PSMA Fab only.
1.64

// Input: VDRLCVPNWMCMGL (Clonal phage of the Peptide-180 library) [Phage-3552] . Output its Phage binding ELISA signal, Anti-PSMA Fab only.
1.64

// Input: TPPFCIPKWMCQGF (Clonal phage of the Peptide-180 library) [Phage-3548] . Output its Phage binding ELISA signal, Anti-PSMA Fab only.
1.65

// Input: VVPLCVPMWMCSPM (Clonal phage of the Peptide-180 library) [Phage-3557] . Output its Phage binding ELISA signal, Anti-PSMA Fab only.
1.64

Source listed as patent US20260242478A1.
